target: T1, human LAP-TGFB1 Fc fusion (human); test: SPR pH 6.0, antigen captured on Fab 54BLH
T1 construct: also called human LAP-TGFβ1-Fc; human LAP-TGFβ-Fc isoform 1
T1 sequence (chain, as listed by the source limits assumed): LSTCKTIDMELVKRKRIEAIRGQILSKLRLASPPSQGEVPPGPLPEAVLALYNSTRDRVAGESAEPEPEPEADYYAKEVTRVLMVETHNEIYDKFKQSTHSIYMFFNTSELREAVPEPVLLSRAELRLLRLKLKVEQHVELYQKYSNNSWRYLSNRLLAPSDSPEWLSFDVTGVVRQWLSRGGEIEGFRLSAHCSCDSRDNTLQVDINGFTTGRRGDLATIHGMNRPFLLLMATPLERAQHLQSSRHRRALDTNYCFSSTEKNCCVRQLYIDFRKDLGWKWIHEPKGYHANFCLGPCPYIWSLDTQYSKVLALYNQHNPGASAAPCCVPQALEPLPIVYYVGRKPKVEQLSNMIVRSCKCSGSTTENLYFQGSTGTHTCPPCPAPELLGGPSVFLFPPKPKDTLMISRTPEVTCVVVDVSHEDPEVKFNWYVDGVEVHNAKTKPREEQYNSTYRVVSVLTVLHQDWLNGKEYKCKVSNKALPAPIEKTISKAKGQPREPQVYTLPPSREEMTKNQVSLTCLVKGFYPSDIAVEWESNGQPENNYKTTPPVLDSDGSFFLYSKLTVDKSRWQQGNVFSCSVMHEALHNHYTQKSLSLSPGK
Property Name: koff (s⁻¹)
Answer in s⁻¹, number only, no unit symbol.

Binder | Unit Abbreviation | koff
19BLM (antibody, human IgG1, kappa, L234A L235A, V domains shown, IgG1 L234A L235A D265S/kappa; also called 82BLH; 55BMD) VH: EVQLVQSGAEVKKPGASVKVSCKASGYTFTSYDMHWVRQAPGQGLEWMGRIDPQSGGIKYAQKFQGRATLTVDTSTSTAYMELSRLRSDDTAVYYCARYDHGGYFDVWGQGTLVTVSS VL: DIQMTQSPSSLSASVGDRVTITCRASQDIYNYLNWYQQKPGKAVKLLIYYTSYLETGVPSRFSGSGSGTDYTLTISSLQPEDFATYFCQQGDTLPWTFGQGTKLEIKR | s⁻¹ | 0.0365

Below: the item to evaluate.
For the binder 67BLH (Fab, V domains shown, also called 19BLM Fab) VH: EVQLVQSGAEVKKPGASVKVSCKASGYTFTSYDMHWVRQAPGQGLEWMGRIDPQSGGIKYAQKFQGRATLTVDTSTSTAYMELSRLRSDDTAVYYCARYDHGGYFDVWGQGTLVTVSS VL: DIQMTQSPSSLSASVGDRVTITCRASQDIYNYLNWYQQKPGKAVKLLIYYTSYLETGVPSRFSGSGSGTDYTLTISSLQPEDFATYFCQQGDTLPWTFGQGTKLEIK , report koff.
0.046

Sourced from patent US20230272056A1
